Values from the OPERA property sets (Mansouri et al. 2018)

- Condition notes: 25 °C
Quantity kind: log10 solubility (log10 of the value in mM)
Reminder: these figures are log10 of reported solubility, in mM before transformation.

// known answers, use as guide
Molecule	log10 solubility
CCCOP(=O)(OCCC)Oc1ccc(SC)cc1	-0.39
ClC(Cl)=C(c1ccc(Cl)cc1)c1ccccc1Cl	-3.36

Input line: Report log10 solubility for Clc1cccc(-c2cccc(Cl)c2Cl)c1Cl please.
Output line: -4.27

Input line: Consider the molecule C=CCCCCCC and give its measured log10 solubility.
Output line: -1.44

Input line: Endpoint output: log10 solubility of C1CCCCCC1 . Value?
Output line: -0.51

Input line: Please report the recorded log10 solubility for CCCC(C)CC (stereo unspecified) .
Output line: -1.31

Input line: Need log10 solubility, item O=C(O)c1cc([N+](=O)[O-])cc([N+](=O)[O-])c1
Output line: 0.80
